experiment: A qHTS for Small Molecule Inhibitors of Shiga Toxin; settings: Vero cells, Shiga toxin protein synthesis inhibition reporter; at 38.7 µM; further: 0% is about no effect
About 27,000 (9.3%) of roughly 290,000 compounds were called active. No stated cut-off is given here; in the data, active means inhibition mostly above about 28% (no sharp cut-off); inactive means mostly below about 43%. For the sample, actives were picked, then their nearest neighbours and some compounds at random.
Tick one outcome: active, inactive

Example entries and their recorded answers appear below.
INSERT INTO measurements (compound, answer_label) VALUES
  ('CCOc1ccc(C(C(=O)NCCOC)N(CCOC)C(=O)CCC(=O)Nc2ccccn2)cc1 (stereo unspecified)', 'inactive'),
  ('CN1CCc2ccccc2C1Cc1ccccc1NC(=O)c1sc2ccccc2c1Cl (stereo unspecified)', 'inactive'),
  ('O=C(Nc1cccc(NC(=O)c2cccc(F)c2)c1)c1ccccc1', 'inactive'),
  ('O=C(O)CSc1nnc(-c2ccc3c(c2)OCO3)n1-c1ccccc1', 'inactive'),
  ('O=C(Nc1ccn(Cc2ccccc2)n1)c1cccc(F)c1', 'active'),
  ('COc1ccc(N2CC(C(=O)N[C@@H](C)C(=O)N3CCCCC3)CC2=O)cc1 (stereo partly specified)', 'inactive'),
  ('Cc1ccc(NC(=O)C2CCN(S(=O)(=O)c3ccc4c(c3)NC(=O)CO4)CC2)cc1C', 'inactive'),
  ('COc1ccc(-c2nn(-c3ccccc3)cc2/C=C\C(=O)Nc2ccc(C(=O)O)cc2)cc1', 'inactive');

Please indicate how the test categorized `O=C(Nc1ccn(Cc2ccccc2)n1)c1n[nH]c([N+](=O)[O-])c1Cl` .
inactive

Please indicate how the test categorized `CCOC(=O)[C@H]1[C@H]2COc3cc(OC)ccc3[C@@H]2N2C(=O)N(c3ccc(Br)cc3)C(=O)[C@@]12C` .
inactive

Please indicate how the test categorized `O=c1c(-c2ccc(Cl)cc2)[n+]([O-])c2ccccc2n1OCc1nc2ccccc2[nH]1` .
active

Please indicate how the test categorized `Cc1cccc(NC(=O)c2sc3nc4c(c(-c5ccco5)c3c2N)CCC4)c1` .
inactive

###

test: A qHTS for Small Molecule Inhibitors of Shiga Toxin; details: Vero cells, Shiga toxin protein synthesis inhibition reporter; at 38.7 µM, stronger effect = higher value; further: 0% is about no effect
Out of some 290,000 compounds screened, about 27,000 (9.3%) were called active. The list comes from a sample in which actives are over-represented; it also holds close analogues and randomly drawn compounds.
Give measured inhibition for each item. Keep answers brief.
Give bare numbers, in %.

Here are 3 molecules. What values of inhibition were reported for them?
1. CCOc1ccc(CNC(=O)C2CCCN(c3nnc(C)c4c(C)n(-c5ccccc5)nc34)C2)cc1 (configuration not stated)
2. O=C(NCc1ccccc1Cl)c1ccc2c(=O)n(CC3CCCO3)c(=S)[nH]c2c1 (configuration not stated)
3. CCOC(=O)C1CCN(C(=O)COc2cccc3ccccc23)CC1

[-7.91, 28.6, 34.7]

Here are 4 molecules. What values of inhibition were reported for them?
1. O=C(Nc1ccc2c(c1)OCCO2)c1cnccn1
2. CCOC(=O)C1CCN(C(=O)COc2cc(C)c(Br)c(C)c2)CC1
3. O=C(Nc1ccc2c(c1)OCCO2)c1ccncc1
4. NC(=O)C1CCN(C(=O)COc2cccc3cccnc23)CC1

[42.2, 2.84, 117, 33.9]

###

assay: A qHTS for Small Molecule Inhibitors of Shiga Toxin; details: Vero cells, Shiga toxin protein synthesis inhibition reporter; at 38.7 µM, stronger effect = higher value; further: 0% is about no effect
About 27,000 (9.3%) of roughly 290,000 compounds were called active. The sample holds actives, similar compounds and a random draw of the others, so the mix is not that of the screen.
Give measured inhibition for each item. Keep answers brief.
One number for each entry, in %.

Known inhibition results, listed for orientation:
INSERT INTO results (compound, measured_endpoint, val) VALUES
  ('CN(C)c1ccc(-n2cccc2/C=C2/SC(=Nc3ccc(F)cc3)NC2=O)cc1', 'inhibition', -12.2),
  ('O=C(CSc1ccc(-c2ccc(Br)cc2)nn1)NCC1CCCO1 (stereo not given)', 'inhibition', 2.72),
  ('CC(=O)Nc1ccc(S(=O)(=O)NC2(C(F)(F)F)C(=O)Nc3c2c(=O)[nH]c(=O)n3Cc2ccccc2)cc1 (stereo not given)', 'inhibition', -2.93),
  ('COc1ccc(CCNC(=O)c2nnc(CS(=O)(=O)c3ccccc3)o2)cc1OC', 'inhibition', 5.82),
  ('COc1ccc(NC(=S)N2N=CCC2c2ccccc2)cc1 (stereo not given)', 'inhibition', 88.7);

Here are 8 compounds. What values of inhibition were reported for them?
1. O=C(CN(CC1CCCO1)C(=O)CNS(=O)(=O)c1ccc(Cl)cc1)NCc1ccccc1 (stereo not given)
2. CN(C)c1ccc(-n2cccc2/C=N/n2cnnc2)cc1
3. COC(=O)CN1C(=O)C(C)(C)Oc2ccc(C(=O)Nc3cccc(OC)c3)cc21
4. O=C(CN1C(=O)NC2(CCCCC2)C1=O)NCCc1c[nH]c2ccccc12
5. O=C1CSC(=S)N1c1ccc(O)cc1
6. CN(CCc1ccccn1)C(=O)c1ccc(OC2CCN(Cc3ccccn3)CC2)cc1
7. CC(NCc1cccs1)C(=O)Nc1cc(Cl)cc(Cl)c1 (stereo not given)
8. COc1cc2ccccc2cc1C(=O)Nc1ccc(N2CCOCC2)cc1

1. -14
2. 61
3. -0.621
4. -14
5. -10.4
6. 16
7. 24.3
8. 18.7

Here are 2 compounds. What values of inhibition were reported for them?
1. CC(C)C[C@H](NC(=O)N1CCn2c1nc1ccccc12)C(=O)NC1CC1
2. O=c1[nH]c(=O)n(Cc2ccco2)c2c1C(C(F)(F)F)(C(F)(F)F)N=C(c1ccco1)N2

23.3
58.8
